- procedure_text: inhibitors of E-selectin induction by TNFa, primary screen, imaging, HUVEC, immunofluorescence, MLSMR starter and 10KST1 sets (AID 487);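 also: signal is fraction of cell area covered by stained E-selectin grains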
- condition_details: HUVEC TNFalpha-induced E-selectin immunofluorescence imaging, at 2 µM; stronger effect = higher value
# Lookup of reported inhibition keyed by entry
property_label: inhibition (%)

[
  {
    "molecule": "Cn1nc(CC(=O)Nc2ccc(N3CCN(C(=O)OC(C)(C)C)CC3)cc2)c2ccccc2c1=O",
    "numeric_result": -34.7
  },
  {
    "molecule": "NC(=O)NC(=O)CSc1cccc(C(F)(F)F)c1",
    "numeric_result": -77.3
  },
  {
    "molecule": "CCCCSCCCNC(=O)CS(=O)Cc1nc(-c2cccc(C)c2)oc1C (stereo not drawn)",
    "numeric_result": -27.5
  }
]

====

- tested_on: Voltage-gated potassium channel subunit beta-2 (Rattus norvegicus) (UniProt P62483)
- Sequence (P62483 whole entry, looked up): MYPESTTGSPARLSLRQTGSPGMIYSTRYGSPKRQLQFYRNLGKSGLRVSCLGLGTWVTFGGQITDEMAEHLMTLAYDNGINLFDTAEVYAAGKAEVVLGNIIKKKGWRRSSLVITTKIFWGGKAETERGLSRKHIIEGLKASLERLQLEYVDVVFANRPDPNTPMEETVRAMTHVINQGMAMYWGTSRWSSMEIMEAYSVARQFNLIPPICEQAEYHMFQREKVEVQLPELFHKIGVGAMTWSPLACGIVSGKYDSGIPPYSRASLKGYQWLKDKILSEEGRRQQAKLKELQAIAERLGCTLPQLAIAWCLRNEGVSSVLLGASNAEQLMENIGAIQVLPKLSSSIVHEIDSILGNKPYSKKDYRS
- procedure_text: KvBeta enzyme negative modulators, primary screen, biochemical, NADPH fluorescence (AID 622);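 also: slope of raw intensity against log time taken from 70 to 1610 s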
- condition_details: recombinant KvBeta, 4-cyanobenzaldehyde reduction, at 10 µM, stronger effect = higher value
# Lookup of reported fluorescence slope keyed by entry

[
  {
    "molecule": "COC(=O)Oc1c(Br)c(=O)oc2ccccc12",
    "fluorescence slope": -0.443
  },
  {
    "molecule": "Cc1onc(-c2ccccc2)c1C(=O)Nc1ccc(S(=O)(=O)N2CCCCC2)cc1",
    "fluorescence slope": -0.599
  },
  {
    "molecule": "O=S(=O)(Nc1ccn(-c2ccccc2)n1)c1ccc(Br)cc1",
    "fluorescence slope": -0.413
  },
  {
    "molecule": "CCC1(NC(C)=O)CC2CC1CC2NC(C)=O (stereo not drawn)",
    "fluorescence slope": -0.614
  },
  {
    "molecule": "Cc1cc(Br)ccc1NC(=O)CNC(=O)CSc1n[nH]c(N)n1",
    "fluorescence slope": -0.58
  },
  {
    "molecule": "COc1cccc(-c2cc(C(=O)N3CCCCCC3)no2)c1",
    "fluorescence slope": -0.522
  },
  {
    "molecule": "CCOc1ccc(NC(=O)C(C)Sc2nnc(C)n2C)cc1 (stereo not drawn)",
    "fluorescence slope": -0.591
  },
  {
    "molecule": "CC1(C)Cc2c(c(N3CCCCC3)[nH]c(=S)c2C#N)CS1",
    "fluorescence slope": -0.479
  },
  {
    "molecule": "N#CCCN(C(=O)c1ccco1)c1ccccc1",
    "fluorescence slope": -0.462
  },
  {
    "molecule": "CSc1nc2sc3c(c2c2nnnn12)CCC3",
    "fluorescence slope": -0.441
  },
  {
    "molecule": "Clc1ccccc1CN(Cc1ccccc1)c1ncnc2nc[nH]c12",
    "fluorescence slope": -0.481
  },
  {
    "molecule": "O=C(Nc1ccc2c(c1)OCCO2)C1CCCN(S(=O)(=O)c2cnc[nH]2)C1 (stereo not drawn)",
    "fluorescence slope": -0.563
  },
  {
    "molecule": "COC(=O)C1(C)NC(c2cccs2)C2C(=O)N(c3ccccc3F)C(=O)C21 (stereo not drawn)",
    "fluorescence slope": -0.52
  },
  {
    "molecule": "Cc1ccc(-c2noc(CCC(=O)NCC3CCN(Cc4cccc(C)c4)CC3)n2)cc1",
    "fluorescence slope": -0.401
  },
  {
    "molecule": "COc1ccc(C2C3=C(CCCC3=O)Nc3nc(SCc4ccccc4)nn32)cc1OC (stereo not drawn)",
    "fluorescence slope": -0.335
  },
  {
    "molecule": "CCOC(=O)Cn1c(CCC(=O)O)ccc1-c1ccc(F)cc1",
    "fluorescence slope": -0.548
  },
  {
    "molecule": "N#Cc1c(N)nc2c(c1-c1ccncc1)CCCCC2",
    "fluorescence slope": -0.577
  },
  {
    "molecule": "CSc1nc(N)nc(SCCS(=O)(=O)c2ccc(Cl)cc2)c1C#N",
    "fluorescence slope": -0.442
  }
]
